Below, each entry is listed with its recorded protein stability index.
B1: DCAF4 (parent)
chain: DSHILLCLMGLAETPGCATLLPAS

Variants of: B1
Assay: protein stability index of a GFP-peptide fusion (GPS, HEK-293T) (PSI 1-6); higher = more stable;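 note: lentivirally expressed fusions sorted by FACS into six bins by GFP to DsRed ratio, PSI derived from sequencing read proportions per bin multiplied by bin number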
Conditions: c terminus: a fixed tail appended
reported-property: protein stability index

mutation-label: A23T
reported-property: protein stability index
measured-value: 2.42

mutation-label: S24N
reported-property: protein stability index
measured-value: 2.69

mutation-label: D1T
reported-property: protein stability index
measured-value: 2.58

mutation-label: C7G
reported-property: protein stability index
measured-value: 2.32

mutation-label: E13I
reported-property: protein stability index
measured-value: 4.29

mutation-label: L20G
reported-property: protein stability index
measured-value: 2.44

mutation-label: H3T
reported-property: protein stability index
measured-value: 3.73

mutation-label: P22G
reported-property: protein stability index
measured-value: 2.29

mutation-label: L21T
reported-property: protein stability index
measured-value: 2.04

mutation-label: M9I
reported-property: protein stability index
measured-value: 2.6

mutation-label: M9A
reported-property: protein stability index
measured-value: 2.83

mutation-label: L6G
reported-property: protein stability index
measured-value: 1.87

mutation-label: E13C
reported-property: protein stability index
measured-value: 2.88

mutation-label: C7H
reported-property: protein stability index
measured-value: 2.9

mutation-label: L5F
reported-property: protein stability index
measured-value: 1.59

mutation-label: L8A
reported-property: protein stability index
measured-value: 1.96

mutation-label: I4E
reported-property: protein stability index
measured-value: 1.99

mutation-label: L5K
reported-property: protein stability index
measured-value: 2.12

mutation-label: D1W
reported-property: protein stability index
measured-value: 3.42

mutation-label: L11D
reported-property: protein stability index
measured-value: 1.66

mutation-label: A12H
reported-property: protein stability index
measured-value: 2.59

mutation-label: T19Y
reported-property: protein stability index
measured-value: 3.13

mutation-label: G16L
reported-property: protein stability index
measured-value: 2.05

mutation-label: E13G
reported-property: protein stability index
measured-value: 1.88

mutation-label: L8Q
reported-property: protein stability index
measured-value: 1.95

mutation-label: P15I
reported-property: protein stability index
measured-value: 2.35

mutation-label: S24W
reported-property: protein stability index
measured-value: 2.76

mutation-label: D1G
reported-property: protein stability index
measured-value: 3.42

mutation-label: S2L
reported-property: protein stability index
measured-value: 2.63

mutation-label: S24T
reported-property: protein stability index
measured-value: 3.75

mutation-label: M9K
reported-property: protein stability index
measured-value: 1.42

mutation-label: A12I
reported-property: protein stability index
measured-value: 2.11

mutation-label: G16F
reported-property: protein stability index
measured-value: 2.85

mutation-label: L20C
reported-property: protein stability index
measured-value: 2.91

mutation-label: G10T
reported-property: protein stability index
measured-value: 3.51

mutation-label: L8D
reported-property: protein stability index
measured-value: 3.14

mutation-label: H3V
reported-property: protein stability index
measured-value: 2.04

mutation-label: M9P
reported-property: protein stability index
measured-value: 2.12

mutation-label: L8H
reported-property: protein stability index
measured-value: 1.51

mutation-label: L20Y
reported-property: protein stability index
measured-value: 3.25

mutation-label: T19Q
reported-property: protein stability index
measured-value: 1.43

mutation-label: L11S
reported-property: protein stability index
measured-value: 1.4

mutation-label: L21D
reported-property: protein stability index
measured-value: 1.71

mutation-label: L8T
reported-property: protein stability index
measured-value: 1.97

mutation-label: A23N
reported-property: protein stability index
measured-value: 3.13

mutation-label: A23Q
reported-property: protein stability index
measured-value: 2.72

mutation-label: G16N
reported-property: protein stability index
measured-value: 2.77

mutation-label: A12E
reported-property: protein stability index
measured-value: 2.25

mutation-label: M9S
reported-property: protein stability index
measured-value: 1.67

mutation-label: T19I
reported-property: protein stability index
measured-value: 2.58

mutation-label: I4S
reported-property: protein stability index
measured-value: 1.82

mutation-label: C7R
reported-property: protein stability index
measured-value: 2.1

mutation-label: I4A
reported-property: protein stability index
measured-value: 1.67

mutation-label: P22K
reported-property: protein stability index
measured-value: 3.2

mutation-label: A12L
reported-property: protein stability index
measured-value: 2.76

mutation-label: G16V
reported-property: protein stability index
measured-value: 2.76

mutation-label: L20M
reported-property: protein stability index
measured-value: 2.52

mutation-label: E13S
reported-property: protein stability index
measured-value: 3.26

mutation-label: L6V
reported-property: protein stability index
measured-value: 1.37

mutation-label: G16H
reported-property: protein stability index
measured-value: 2.37

mutation-label: H3K
reported-property: protein stability index
measured-value: 1.81

mutation-label: S2R
reported-property: protein stability index
measured-value: 2.46

mutation-label: P15L
reported-property: protein stability index
measured-value: 3.33

mutation-label: I4P
reported-property: protein stability index
measured-value: 1.86

mutation-label: L5V
reported-property: protein stability index
measured-value: 2.28

mutation-label: T14P
reported-property: protein stability index
measured-value: 2.53

mutation-label: I4C
reported-property: protein stability index
measured-value: 2.15

mutation-label: L21V
reported-property: protein stability index
measured-value: 2.17

mutation-label: L11V
reported-property: protein stability index
measured-value: 2.65

mutation-label: P22H
reported-property: protein stability index
measured-value: 3.65

mutation-label: L8E
reported-property: protein stability index
measured-value: 2.36

mutation-label: T19N
reported-property: protein stability index
measured-value: 2.42

mutation-label: L5C
reported-property: protein stability index
measured-value: 2.07

These data points were gathered from the supplement of paper PMC10567573.
